Tested on: M249-AR (M249-R4) melanoma cell line
Procedure Text: Anti-proliferative effect of miRNA mimics, MTS assay
Format: cell-based
Cond: 30 nM mimic, 72 hours after transfection
Listed below: M249-AR % Viability 30 nM values for each entry.
# number then unit; no other words

[Q] Give the reported value of M249-AR % Viability 30 nM for this record: hsa-miR-129-5p: mature miRNA mimic, SEQ ID NO 4 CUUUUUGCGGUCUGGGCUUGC (listed as RNA, chemistry not given here)
[A] 64%

[Q] Dear colleague, please send me the reported M249-AR % Viability 30 nM for hsa-miR-16-5p: mature miRNA mimic, SEQ ID NO 7 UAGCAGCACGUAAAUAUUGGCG (listed as RNA, chemistry not given here) when you can.
[A] 68%

[Q] Find the measured M249-AR % Viability 30 nM of hsa-miR-497-5p: mature miRNA mimic, SEQ ID NO 8 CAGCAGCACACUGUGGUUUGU (listed as RNA, chemistry not given here) and report it.
[A] 68%

[Q] Identify M249-AR % Viability 30 nM associated with the substance hsa-miR-3157-5p: mature miRNA mimic, SEQ ID NO 6 UUCAGCCAGGCUAGUGCAGUCU (listed as RNA, chemistry not given here)
[A] 53%

These data points were gathered from patent US10201556B2.
